protocol-text: Stability in human plasma measured up to 4 hrs by LC-MS/MS method
Format: ADME, cell-free
protocol-conditions: read-out: Stability
measured-metric: remaining at 4 h

Item under review: Cc1ccc([C@@H]2C[C@H](CN[C@H](C)c3cccc4ccccc34)Oc3ccccc32)cc1C(=O)O.Cl . Reported remaining at 4 h? > 80%

* * *

measured-on: Extracellular calcium-sensing receptor (Homo sapiens, UniProt P41180)
Sequence (P41180 whole entry): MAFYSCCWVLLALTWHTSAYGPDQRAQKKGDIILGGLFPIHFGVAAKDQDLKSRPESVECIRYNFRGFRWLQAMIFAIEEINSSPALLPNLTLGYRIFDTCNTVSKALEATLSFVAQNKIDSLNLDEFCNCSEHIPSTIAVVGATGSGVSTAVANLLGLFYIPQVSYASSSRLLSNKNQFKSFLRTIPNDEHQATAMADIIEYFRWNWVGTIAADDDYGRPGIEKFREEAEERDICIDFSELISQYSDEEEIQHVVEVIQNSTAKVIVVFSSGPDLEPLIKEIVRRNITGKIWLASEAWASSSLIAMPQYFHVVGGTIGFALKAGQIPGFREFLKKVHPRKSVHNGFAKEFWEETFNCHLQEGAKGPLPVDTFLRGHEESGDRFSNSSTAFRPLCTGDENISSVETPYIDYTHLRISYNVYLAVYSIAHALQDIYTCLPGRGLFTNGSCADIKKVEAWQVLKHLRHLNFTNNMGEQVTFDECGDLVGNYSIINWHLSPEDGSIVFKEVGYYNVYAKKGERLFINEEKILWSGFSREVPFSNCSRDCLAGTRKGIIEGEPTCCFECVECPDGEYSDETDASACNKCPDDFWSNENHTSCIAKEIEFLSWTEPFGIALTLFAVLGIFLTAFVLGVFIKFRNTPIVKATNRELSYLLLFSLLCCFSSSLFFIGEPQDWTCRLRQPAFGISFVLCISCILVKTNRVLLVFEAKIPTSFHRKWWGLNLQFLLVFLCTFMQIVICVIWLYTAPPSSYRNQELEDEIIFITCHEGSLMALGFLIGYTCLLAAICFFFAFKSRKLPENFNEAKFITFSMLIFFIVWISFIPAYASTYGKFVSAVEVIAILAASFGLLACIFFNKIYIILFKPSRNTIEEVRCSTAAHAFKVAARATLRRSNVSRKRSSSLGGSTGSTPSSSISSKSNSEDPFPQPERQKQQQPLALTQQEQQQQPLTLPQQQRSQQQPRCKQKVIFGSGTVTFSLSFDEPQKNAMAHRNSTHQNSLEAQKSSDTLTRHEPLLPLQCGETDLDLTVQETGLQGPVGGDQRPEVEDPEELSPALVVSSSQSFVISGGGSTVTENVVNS
protocol-text: Agonist activity at human CaSR expresssed in HEK293 cells in presence of glucose by Fluo4NW dye based FLIPR assay
Format: functional, cell-based
protocol-conditions: read-out: EC50
hey, just use y if measured EC50 is less than 50 nM, otherwise n

Worked cases, answers included:
C[C@@H](NCC1CN(c2cccc(C(=O)O)c2)c2ccccc2O1)c1cccc2ccccc12 (mixture of isomers; form 2) :: n
C[C@@H](NCC1CN(c2ccccc2)c2ccccc2O1)c1cccc2ccccc12 (mixture of isomers; form 2) :: n
Cc1cc(C(=O)O)cc([C@@H]2C[C@H](CN[C@H](C)c3cccc4ccccc34)Oc3ccccc32)c1 :: y
C[C@@H](NCC1CN(c2ccccc2)c2ccccc2O1)c1cccc2ccccc12 (mixture of isomers; form 1) :: n
Cc1c(C(=O)O)cccc1N1CC(CN[C@H](C)c2cccc3ccccc23)Oc2ccccc21.Cl (mixture of isomers; form 1) :: y
COc1ccc(N2CC(CN[C@H](C)c3cccc4ccccc34)Oc3ccccc32)cc1C(=O)O (mixture of isomers; form 1) :: n
C[C@@H](NCC1CN(c2cccc(CC(=O)O)c2)c2ccccc2O1)c1cccc2ccccc12 (stereo partly drawn) :: n

Consider now this further molecule.
Is the reported EC50 for Cc1ccc([C@H]2C[C@H](CN[C@H](C)c3cccc4ccccc34)Oc3ccccc32)cc1C(=O)O strictly below 50 nM? n

* * *

protocol-text: AUC in Sprague-Dawley rat at 10 mg/kg, po measured upto 24 hrs by LC/MS-MS analysis
Format: ADME, organism-based
Parameters: time < 24 hrs, dose 10 mg/kg, route po
protocol-conditions: in vivo
measured-metric: AUC at 24 h
// return the numeric value with its unit appended

Item under review: Cc1ccc([C@@H]2C[C@H](CN[C@H](C)c3cccc4ccccc34)Oc3ccccc32)cc1C(=O)O.Cl . Reported AUC at 24 h? 71 µM·h

* * *

protocol-text: Cmax in human at 10 mg/kg, po administered as single dose
Type: ADME, organism-based
Design: dose 10 mg/kg, route po
protocol-conditions: in vivo
measured-metric: Cmax
// return the numeric value with its unit appended

Item under review: Cc1ccc([C@@H]2C[C@H](CN[C@H](C)c3cccc4ccccc34)Oc3ccccc32)cc1C(=O)O.Cl . Reported Cmax? 202 ng/mL

* * *

protocol-text: in vivo
protocol-conditions: Sprague-Dawley, rat, po, 1 mg/kg
Description: Tmax in Sprague-Dawley rat at 1 mg/kg, po measured upto 24 hrs by LC-MS/MS analysis
measured-metric: Tmax at 24 h (min)
Give the number; min is assumed, so skip it.

Item under review: C[C@@H](N[C@H]1CCN(c2ccc(CC(=O)O)cc2)C1)c1cccc2ccccc12 . Reported Tmax at 24 h? 48.6

* * *

protocol-text: Cmax in Beagle dog at 5 mg/kg, po measured upto 24 hrs by LC/MS-MS analysis
Format: ADME, organism-based, Canis lupus familiaris
Set-up: dose 5 mg/kg, time < 24 hrs, route po
protocol-conditions: in vivo
measured-metric: Cmax (µM)
Give the number; µM is assumed, so skip it.

Item under review: Cc1ccc([C@@H]2C[C@H](CN[C@H](C)c3cccc4ccccc34)Oc3ccccc32)cc1C(=O)O.Cl . Reported Cmax? 11

* * *

protocol-text: Drug excretion in BALB/c mouse assessed as drug recovery in urine at 10 mg/kg, po
Assay type: ADME, organism-based
protocol-conditions: read-out: Drug recovery
measured-metric: dose excreted

Item under review: Cc1ccc([C@@H]2C[C@H](CN[C@H](C)c3cccc4ccccc34)Oc3ccccc32)cc1C(=O)O.Cl . Reported dose excreted? < 1%

* * *

measured-on: CYP2D6 (Homo sapiens)
Sequence (P10635 whole entry): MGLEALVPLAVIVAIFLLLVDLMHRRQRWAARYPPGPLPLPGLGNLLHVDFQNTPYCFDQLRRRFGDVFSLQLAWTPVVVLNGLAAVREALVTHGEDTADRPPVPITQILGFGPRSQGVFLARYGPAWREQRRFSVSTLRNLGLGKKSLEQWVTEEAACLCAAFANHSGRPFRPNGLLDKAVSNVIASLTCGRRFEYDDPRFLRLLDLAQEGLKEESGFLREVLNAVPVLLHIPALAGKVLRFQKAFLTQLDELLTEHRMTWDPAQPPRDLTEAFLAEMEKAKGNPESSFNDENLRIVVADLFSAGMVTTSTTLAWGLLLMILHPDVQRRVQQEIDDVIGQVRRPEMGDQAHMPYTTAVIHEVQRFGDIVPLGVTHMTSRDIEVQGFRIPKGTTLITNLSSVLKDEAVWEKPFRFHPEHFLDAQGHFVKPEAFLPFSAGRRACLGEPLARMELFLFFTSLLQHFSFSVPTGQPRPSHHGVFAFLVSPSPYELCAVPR
protocol-text: Inhibition of CYP2D6 in human liver microsomes at 10 uM preincubated for 5 mins followed by NADPH addition by LC-MS/MS analysis relative to control
Format: ADME, Microsome
Decision: inhibition at 10 µM >= 30% yields true (1), all other cases yield false (0).

Worked cases, answers included:
Cc1cc(C(=O)O)cc([C@@H]2C[C@H](CN[C@H](C)c3cccc4ccccc34)Oc3ccccc32)c1 :: true (1)
C[C@@H](NCC1CN(c2cccc(C(=O)O)c2)c2ccccc2O1)c1cccc2ccccc12 (mixture of isomers; form 1) :: true (1)
C[C@@H](NCC1CN(c2ccccn2)c2ccccc2O1)c1cccc2ccccc12 (some centres not stated) :: true (1)
C[C@@H](NCC1CN(C(=O)c2ccccc2)c2ccccc2O1)c1cccc2ccccc12 (mixture of isomers; form 1) :: true (1)
Cc1ccc(N2CC(CN[C@H](C)c3cccc4ccccc34)Oc3ccccc32)cc1C(=O)O.Cl (some centres not stated) :: true (1)

Does the molecule Cc1c(C(=O)O)cccc1N1CC(CN[C@H](C)c2cccc3ccccc23)Oc2ccccc21.Cl (mixture of isomers; form 1) have recorded inhibition at 10 µM that is 30% or more? true (1)

Next molecule: Cc1ccc([C@@H]2C[C@H](CN[C@H](C)c3cccc4ccccc34)Oc3ccccc32)cc1C(=O)O.Cl false (0)

* * *

Target sequence: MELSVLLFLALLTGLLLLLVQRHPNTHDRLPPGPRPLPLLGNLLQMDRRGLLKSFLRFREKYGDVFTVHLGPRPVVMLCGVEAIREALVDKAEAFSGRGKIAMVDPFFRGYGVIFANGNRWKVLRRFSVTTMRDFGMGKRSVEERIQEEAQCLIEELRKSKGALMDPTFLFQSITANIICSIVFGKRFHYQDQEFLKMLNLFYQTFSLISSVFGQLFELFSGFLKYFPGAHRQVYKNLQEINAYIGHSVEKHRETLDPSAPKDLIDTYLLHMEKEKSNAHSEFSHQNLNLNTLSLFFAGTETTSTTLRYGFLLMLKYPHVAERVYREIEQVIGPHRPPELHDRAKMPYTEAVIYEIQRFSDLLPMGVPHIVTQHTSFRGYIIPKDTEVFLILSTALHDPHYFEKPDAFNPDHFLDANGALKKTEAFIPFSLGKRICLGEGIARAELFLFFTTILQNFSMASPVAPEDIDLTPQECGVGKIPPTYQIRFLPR
measured-metric: pIC50
Please express pIC50 as -log10 of the molar concentration.

Item under review: Cc1ccc([C@@H]2C[C@H](CN[C@H](C)c3cccc4ccccc34)Oc3ccccc32)cc1C(=O)O.Cl . Reported pIC50? 4.19

* * *

protocol-text: Drug excretion in BALB/c mouse assessed as drug recovery in urine at 1 mg/kg, iv
Format: ADME, organism-based
protocol-conditions: read-out: Drug recovery
measured-metric: dose excreted

Item under review: Cc1ccc([C@@H]2C[C@H](CN[C@H](C)c3cccc4ccccc34)Oc3ccccc32)cc1C(=O)O.Cl . Reported dose excreted? < 1%

* * *

protocol-text: Metabolic stability in human liver cytosol measured upto 60 mins by LC-MS/MS method
Format: ADME, subcellular
protocol-conditions: read-out: Stability
measured-metric: remaining at 1 h

Item under review: Cc1ccc([C@@H]2C[C@H](CN[C@H](C)c3cccc4ccccc34)Oc3ccccc32)cc1C(=O)O.Cl . Reported remaining at 1 h? > 80%

* * *

protocol-text: AUC(0 to 24 hrs) in Sprague-Dawley rat at 10 mg/kg
Format: ADME, organism-based
Parameters: dose 10 mg/kg
protocol-conditions: in vivo
measured-metric: AUC(0-t) (µM·h)
Give the number; µM·h is assumed, so skip it.

Item under review: Cc1ccc([C@@H]2C[C@H](CN[C@H](C)c3cccc4ccccc34)Oc3ccccc32)cc1C(=O)O.Cl . Reported AUC(0-t)? 23

* * *

protocol-text: Cmax in Sprague-Dawley rat at 30 mg/kg
Format: ADME, organism-based
Design: dose 30 mg/kg
protocol-conditions: in vivo
measured-metric: Cmax (µM)
Give the number; µM is assumed, so skip it.

Item under review: Cc1ccc([C@@H]2C[C@H](CN[C@H](C)c3cccc4ccccc34)Oc3ccccc32)cc1C(=O)O.Cl . Reported Cmax? 24

* * *

protocol-text: Cmax in Sprague-Dawley rat at 10 mg/kg, po administered as solution measured upto 24 hrs by LC-MS/MS analysis
Assay type: ADME, organism-based
Set-up: dose 10 mg/kg, time < 24 hrs, route po
protocol-conditions: in vivo
measured-metric: Cmax

Item under review: Cc1ccc([C@@H]2C[C@H](CN[C@H](C)c3cccc4ccccc34)Oc3ccccc32)cc1C(=O)O.Cl . Reported Cmax? 14 µM

* * *

protocol-text: Drug excretion in rat assessed as drug recovery in urine at 1 mg/kg, iv
Format: ADME, organism-based
protocol-conditions: read-out: Drug recovery
measured-metric: dose excreted

Item under review: Cc1ccc([C@@H]2C[C@H](CN[C@H](C)c3cccc4ccccc34)Oc3ccccc32)cc1C(=O)O.Cl . Reported dose excreted? < 1%

* * *

protocol-text: Cmax in mouse at 50 mg/kg per day, po via gavage administered for 13 weeks
Format: ADME, organism-based
Design: time 13 weeks, dose 50 mg/kg, route po
protocol-conditions: in vivo
measured-metric: Cmax (ng/mL)
Give the number; ng/mL is assumed, so skip it.

Item under review: Cc1ccc([C@@H]2C[C@H](CN[C@H](C)c3cccc4ccccc34)Oc3ccccc32)cc1C(=O)O.Cl . Reported Cmax? 34800

The origin of these recorded values is ChEMBL document CHEMBL5346964.
